molecular target: PRKACB (human) (UniProt P22694); test: KINOMEscan competition binding; conditions: compound 10.0 µM
Overview of reported kinase still bound, per cent of control across a group of compounds:

Item smiles	System under test	Units	kinase still bound, per cent of control
CCC(=O)N1CCN(c2ccc(-n3c(=O)ccc4cnc5ccc(-c6cnc7ccccc7c6)cc5c43)cc2C(F)(F)F)CC1	PRKACB (human) (UniProt P22694)	%	100
Cc1ccc2nc(NCCN)c3ncc(C)n3c2c1	PRKACB (human) (UniProt P22694)	%	100
C=CC(=O)Nc1cc(NC(=O)c2ccc(C)c(NC(=O)c3ccno3)c2)cc(C(F)(F)F)c1	PRKACB (human) (UniProt P22694)	%	100
O=C(NOC[C@H](O)CO)c1ccc(F)c(F)c1Nc1ccc(I)cc1F	PRKACB (human) (UniProt P22694)	%	98
O=C(O)c1ccc(Nc2ncc3c(n2)-c2ccc(Cl)cc2C(c2c(F)cccc2F)=NC3)cc1	PRKACB (human) (UniProt P22694)	%	58
CC[C@@H]1C(=O)N(C)c2cnc(Nc3ccc(C(=O)NC4CCN(C)CC4)cc3OC)nc2N1C1CCCC1	PRKACB (human) (UniProt P22694)	%	100
O=C1Nc2ccc(I)cc2/C1=C/c1cc(Br)c(O)c(Br)c1	PRKACB (human) (UniProt P22694)	%	100
Cc1cc([C@@H](C)Nc2ccccc2C(=O)O)c2nc(N3CCOCC3)cc(=O)n2c1	PRKACB (human) (UniProt P22694)	%	100
CCN1CCN(Cc2ccc(Nc3ncc4c(n3)N(C)c3ccccc3C(=O)N4C)cc2C(F)(F)F)CC1	PRKACB (human) (UniProt P22694)	%	100
Cc1ccc(NC(=O)c2cccc(C(C)(C)C#N)c2)cc1Nc1ccc2ncn(C)c(=O)c2c1	PRKACB (human) (UniProt P22694)	%	100
CCCS(=O)(=O)Nc1ccc(F)c(C(=O)c2c[nH]c3ncc(-c4ccc(Cl)cc4)cc23)c1F	PRKACB (human) (UniProt P22694)	%	100
OCCCNc1cc(-c2ccnc(Nc3cccc(Cl)c3)n2)ccn1	PRKACB (human) (UniProt P22694)	%	100
C=CC(=O)Nc1cccc(Oc2nc(Nc3ccc(N4CCN(C)CC4)cc3OC)ncc2Cl)c1	PRKACB (human) (UniProt P22694)	%	100
COc1cc(C(=O)NC2CCN(C)CC2)ccc1Nc1ncc2c(n1)N(C1CCCC1)CCC(=O)N2C(C)C	PRKACB (human) (UniProt P22694)	%	100
C[C@@H](Oc1cc(-n2cnc3ccc(CN4CCN(C)CC4)cc32)sc1C(N)=O)c1ccccc1C(F)(F)F	PRKACB (human) (UniProt P22694)	%	89
C=CC(=O)Nc1cccc(Nc2nc(N[C@H]3CC[C@H](N(C)C)CC3)nc3c2ncn3C(C)C)c1	PRKACB (human) (UniProt P22694)	%	100
CCOc1cc2ncc(C#N)c(Nc3ccc(OCc4ccccn4)c(Cl)c3)c2cc1NC(=O)/C=C/CN(C)C	PRKACB (human) (UniProt P22694)	%	100
O=C(NC1CC1)c1cccc(-c2ccc3c(NC(=O)C4CC4)n[nH]c3c2)c1	PRKACB (human) (UniProt P22694)	%	100
COc1cc(N2CCN(C)CC2)ccc1Nc1nc(N)c(C(=O)c2c(Cl)cccc2Cl)s1	PRKACB (human) (UniProt P22694)	%	100

Source listed as the kinase profiling compilation of Christmann-Franck et al. (2016).
